Test system: H2405 cells
PROTOCOL_TEXT: H2405 Cell Proliferation Assay (1)
Type: cell-based
TEST_CONDITIONS: Homo sapiens, NCI-H2405
Description: H2405 Cell Proliferation Assay (1) H2405 cells (catalog #CRL-5994) are obtained from the American Type Culture Collect (ATTC, Manassas, VA). […] Plates are read on a Synergy2 or equivalent reader (Biotek, Winooski VT) using an excitation of 540 nm and an emission of 600 nm. Data is analyzed using Prism software (GraphPad, San Diego, CA) to calculate IC50 values.
pIC50: −log10 of the molar value.
Reported values of pIC50 for individual entries

Cc1ccc(NC(=O)c2ccnc(C(C)(C)C#N)c2)cc1-c1cccc(-c2cc(N)ncn2)c1
6.00 to 6.30
Cc1ncc(NC(=O)c2cnnc(C3CC3)c2)cc1-c1ccnc(-c2ccnc(NC(=O)C3CC3)c2)c1
5.00 to 6.00
CNC(=O)c1cc(-c2ccnc(-c3cc(NC(=O)c4ccnc(C(C)(C)C#N)c4)cnc3C)n2)ccn1
6.30 to 7.00
Cc1ccc(NC(=O)c2cc(C(C)(C)C)on2)cc1-c1cncc(-c2cc(NC(=O)C3CC3)ncn2)c1
≥ 7.00
COC(=O)Nc1cc(-c2cc(-c3cc(NC(=O)c4ccnc(C(C)(C)F)c4)c(F)cc3C)cc(C)n2)ccn1
6.00 to 6.30
Cc1ccc(NC(=O)c2ccnc(C(F)(F)F)c2)cc1-c1cc(-c2ccnc(N)c2)n(C)c(=O)c1
5.00 to 6.00

Ask: Requested read-out: pIC50. Entry: "CNC(=O)c1cc(-c2ccnc(-c3cc(NC(=O)c4ccnc(C(C)(C)OC)c4)ccc3C)n2)ccn1"
Reply: 6.30 to 7.00

---

Reported values of IC50 for individual entries
TARGET: A-Raf kinase (SEQ. ID No: 1) (Homo sapiens (Human), UniProt P10398, Y301D/Y302D)
Sequence (P10398 other isoform, or with tags, fused parts or gaps Y301D (already in the parent)/Y302D (already in the parent)): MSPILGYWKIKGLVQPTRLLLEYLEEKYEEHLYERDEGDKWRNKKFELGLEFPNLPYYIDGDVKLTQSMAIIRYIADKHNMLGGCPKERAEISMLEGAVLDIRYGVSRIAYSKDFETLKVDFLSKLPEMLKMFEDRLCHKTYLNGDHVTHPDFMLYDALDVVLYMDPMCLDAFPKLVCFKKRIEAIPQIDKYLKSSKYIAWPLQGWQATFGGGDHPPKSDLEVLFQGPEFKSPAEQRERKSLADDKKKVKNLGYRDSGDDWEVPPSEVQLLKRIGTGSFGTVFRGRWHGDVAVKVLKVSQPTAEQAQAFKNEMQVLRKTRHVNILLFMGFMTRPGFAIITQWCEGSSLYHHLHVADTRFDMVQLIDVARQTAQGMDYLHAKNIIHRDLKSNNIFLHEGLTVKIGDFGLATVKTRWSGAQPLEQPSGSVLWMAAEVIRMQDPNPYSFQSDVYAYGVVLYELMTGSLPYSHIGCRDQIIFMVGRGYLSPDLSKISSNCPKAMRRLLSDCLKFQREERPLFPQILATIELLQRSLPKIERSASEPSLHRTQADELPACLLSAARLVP
PROTOCOL_TEXT: Biochemical Assay for A-Raf (1)
TEST_CONDITIONS: Table J, assay version (1); read-out: ARAF (1) IC50

In the examples that follow, each entry is paired with its recorded IC50.
COC(=O)Nc1cc(-c2nccc(-c3cc(NC(=O)c4ccnc(C(C)(C)C#N)c4)c(F)cc3C)n2)ccn1 [Example 303]
1 to 10 µM
COC(=O)Nc1cc(-c2cnnc(-c3cc(NC(=O)c4ccnc(C(C)(C)F)c4)cnc3C)c2)ccn1 [Example 361]
1 to 10 µM
Cc1cc(-c2cc(NC(=O)c3ccnc(C(F)(F)F)c3)ccc2F)cc(-c2ccnc(NC(=O)C3CC3)c2)n1 [Example 72]
1 to 10 µM

Ask: Requested read-out: IC50. Entry: CCOc1cc(-c2cc(NC(=O)c3ccnc(C(F)(F)F)c3)c(F)cc2C)cc(-c2ccnc(NC(C)=O)c2)n1 [Example 9]
Reply: 1 to 10 µM

Ask: Requested read-out: IC50. Entry: Cc1ccc(NC(=O)c2ccnc(C(F)(F)F)c2)cc1-c1ccnc(-c2ccnc(NC(=O)C3CC3)c2)c1 [Example 54]
Reply: 1 to 10 µM

Ask: Requested read-out: IC50. Entry: CNC(=O)c1cc(-c2ccnc(-c3cc(NC(=O)c4ccnc(C(C)(C)C#N)c4)cnc3C)n2)ccn1 [Example 199]
Reply: 1 to 10 µM

Ask: Requested read-out: IC50. Entry: Cc1ccc(NC(=O)c2ccnc(C3(C#N)CC3)c2)cc1-c1cccc(-c2cc(NC(=O)C3CC3)ncn2)n1 [Example 220]
Reply: 1 to 10 µM
